# System: Plasmodium falciparum
# Assay comment: In vitro inhibition against chloroquine-sensitive Plasmodium falciparum K39; Range 0.1-0.4 uM
# Type: functional, organism-based
Measured attribute: pIC50
Kindly note that pIC50 refers to -log10 of the concentration in mol/L and answer with the value alone.

Sure, the documented pIC50 for COc1cc2c[n+](C)c3c4cc5c(cc4ccc3c2cc1OC)OCO5 [NITIDINE CHLORIDE] is 6.40

* * *

# System: Plasmodium falciparum
# Assay comment: […] against Plasmodium falciparum strains K39 and V1/S
# Assay type: functional
Measured attribute: Ratio

Past entries and their recorded results:
Sure, the documented Ratio for `COc1cc2c(ccc3c4cc(OC)c(OC)cc4c[n+](C)c23)cc1O.CS(=O)(=O)[O-]` is 0.8

Looking up `CCOc1cc2c3cc(OC)c(OC)cc3c[n+](C)c2c2cc(OC)c(O)cc12.CS(=O)(=O)[O-]` , I found its Ratio recorded as 1

Lookup result for `COc1cc2c[n+](C)c3c4cc(OC)c(OC)cc4c4occc4c3c2cc1OC.CS(=O)(=O)[O-]` ; measured Ratio: 11.3

Continuing:
Form: compound = `COc1cc2ccc3c4cc(OC)c(SC)cc4c[n+](C)c3c2cc1OC.CS(=O)(=O)[O-]` ; Ratio = 4.7

The recorded Ratio for `CCOc1cc2c3cc(OC)c(OC)cc3c[n+](C)c2c2cc(OC)c(OC)cc12.CS(=O)(=O)[O-]` is 1
